Reported half-life by item:
assay: in vitro; conditions: human, plasma, pH 7.4, Plasma Half-Life, human plasma (500 µL) in Krebs-Henseleit buffer pH 7.4, 100 µg peptide, 37 °C shaking, 0, 30 and 120 min, UPLC-PDA, first-order kinetics
Residues, ends and D or L forms follow the SMILES beside them.
Write the value in h as a bare number.

| molecule | test_value |
| --- | --- |
| CC(C)[C@H](N)C(=O)N1CCC[C@H]1C(=O)N[C@@H](Cc1ccccc1)C(=O)N[C@@H](CCC(=O)O)C(=O)N[C@@H](Cc1ccccc1)C(=O)O [Q212, PapR5III] (H-VPFEF-OH) | 0.2 |
| CC(C)C[C@H](NC(=O)[C@H](CC(=O)O)NC(=O)[C@H](C)N)C(=O)N1CCC[C@H]1C(=O)N[C@@H](Cc1ccccc1)C(=O)N[C@@H](CCC(=O)O)C(=O)N[C@@H](Cc1ccccc1)C(=O)O [Q010, PapR7I] (H-ADLPFEF-OH) | 9 |
| CC[C@H](C)[C@H](NC(=O)[C@H](CC(C)C)NC(=O)[C@H](C)N)C(=O)N[C@@H](CC(C)C)C(=O)N[C@H](C(=O)N[C@@H](CC(C)C)C(=O)N[C@H](C(=O)N[C@@H](CO)C(=O)O)C(C)C)[C@@H](C)O [Q017, iPD1] (H-ALILTLVS-OH) | 2.5 |

Now for another entry.
For the molecule C[C@@H](O)[C@H](NC(=O)[C@H](Cc1c[nH]c2ccccc12)NC(=O)[C@@H]1CCCN1C(=O)[C@H](CO)NC(=O)[C@@H](N)Cc1ccc(O)cc1)C(=O)N[C@@H](CC(N)=O)C(=O)N[C@@H](Cc1ccccc1)C(N)=O [Q007, RNAIII Inhibiting Peptide (RIP)] (H-YSPWTNF-NH2) , what half-life is on record?
2

Recorded values, source paper PMC9953703.
